- system tested: KCNQ5 coexpressed with KCNQ3 (T323Y) mutant (Homo sapiens, UniProt O43525+Q9NR82, T323Y)
- Sequence (Q9NR82 36-932 limits assumed): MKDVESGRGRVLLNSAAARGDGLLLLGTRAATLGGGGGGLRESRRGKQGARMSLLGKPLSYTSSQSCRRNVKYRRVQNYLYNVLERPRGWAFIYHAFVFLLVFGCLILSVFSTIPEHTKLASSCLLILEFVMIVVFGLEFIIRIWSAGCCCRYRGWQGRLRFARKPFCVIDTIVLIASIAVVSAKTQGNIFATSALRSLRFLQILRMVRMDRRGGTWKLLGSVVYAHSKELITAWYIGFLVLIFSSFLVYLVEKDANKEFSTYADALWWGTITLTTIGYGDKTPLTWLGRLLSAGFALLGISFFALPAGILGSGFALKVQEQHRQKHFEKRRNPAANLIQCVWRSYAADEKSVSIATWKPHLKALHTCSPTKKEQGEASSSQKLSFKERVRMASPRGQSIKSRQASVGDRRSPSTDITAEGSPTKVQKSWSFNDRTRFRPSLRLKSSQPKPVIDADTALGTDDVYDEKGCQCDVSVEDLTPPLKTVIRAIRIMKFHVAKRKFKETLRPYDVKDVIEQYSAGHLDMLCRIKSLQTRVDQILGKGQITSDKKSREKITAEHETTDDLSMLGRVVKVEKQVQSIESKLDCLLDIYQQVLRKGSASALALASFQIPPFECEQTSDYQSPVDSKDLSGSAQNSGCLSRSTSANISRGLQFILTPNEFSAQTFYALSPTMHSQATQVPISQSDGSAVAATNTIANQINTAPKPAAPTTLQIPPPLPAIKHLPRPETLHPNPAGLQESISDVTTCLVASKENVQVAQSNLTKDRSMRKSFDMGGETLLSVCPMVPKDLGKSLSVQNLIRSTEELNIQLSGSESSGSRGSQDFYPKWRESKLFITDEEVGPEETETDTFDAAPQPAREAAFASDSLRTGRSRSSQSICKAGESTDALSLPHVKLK
- Sequence (O43525 whole entry T323Y): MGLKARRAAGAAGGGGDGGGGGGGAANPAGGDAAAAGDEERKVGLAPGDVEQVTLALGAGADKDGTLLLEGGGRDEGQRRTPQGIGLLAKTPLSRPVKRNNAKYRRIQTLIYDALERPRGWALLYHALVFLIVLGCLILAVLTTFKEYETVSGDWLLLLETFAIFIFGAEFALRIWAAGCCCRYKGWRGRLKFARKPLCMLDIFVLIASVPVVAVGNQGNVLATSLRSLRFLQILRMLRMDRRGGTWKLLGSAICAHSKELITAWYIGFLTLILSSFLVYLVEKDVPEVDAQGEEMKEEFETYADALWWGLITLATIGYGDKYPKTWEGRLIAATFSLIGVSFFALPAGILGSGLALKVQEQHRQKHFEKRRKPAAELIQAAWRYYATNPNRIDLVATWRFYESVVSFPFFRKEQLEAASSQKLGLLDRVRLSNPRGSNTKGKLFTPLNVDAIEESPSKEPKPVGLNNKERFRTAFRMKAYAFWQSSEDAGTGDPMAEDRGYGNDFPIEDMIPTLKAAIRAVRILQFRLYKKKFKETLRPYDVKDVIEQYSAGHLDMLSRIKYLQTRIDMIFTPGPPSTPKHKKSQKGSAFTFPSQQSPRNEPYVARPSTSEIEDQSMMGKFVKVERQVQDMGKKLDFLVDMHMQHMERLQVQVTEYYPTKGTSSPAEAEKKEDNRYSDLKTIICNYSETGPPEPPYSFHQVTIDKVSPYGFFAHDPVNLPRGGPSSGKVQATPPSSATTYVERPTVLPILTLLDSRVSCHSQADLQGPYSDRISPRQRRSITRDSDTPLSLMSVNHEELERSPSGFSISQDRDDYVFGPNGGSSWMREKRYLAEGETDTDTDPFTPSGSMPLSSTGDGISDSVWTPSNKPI
- method description: Two-electrode voltage clamp of KCNQ5 coexpressed with the KCNQ3 (T323Y) mutant in Xenopus oocytes
- experimental context: coexpression of KCNQ5 with the KCNQ3 (T323Y) mutant; Fig. 5C; read-out: IC50 (TEA sensitivity)
pIC50: −log10 of the molar value.
assay endpoint: pIC50

Incoming: Please report pIC50 for the following molecule: CC[N+](CC)(CC)CC [TEA]
Outgoing: ~1.52

* * *

- system tested: KCNQ5 (Homo sapiens, UniProt Q9NR82)
- Sequence (Q9NR82 36-932 limits assumed): as the sequence (Q9NR82 36-932 limits assumed) above
- method description: Two-electrode voltage clamp of KCNQ5 homomers expressed in Xenopus oocytes
- experimental context: extracellular application; Xenopus oocytes; from plotted fit curves (Fig. 5A); means ± SEM of 4 to 12 measurements; read-out: IC50, inhibition of KCNQ5 homomers
Catalogue of IC50 readings, one per entry.

Incoming: Please report IC50 for the following compound: `O=C1N(c2ccccc2)c2ccccc2C1(Cc1ccncc1)Cc1ccncc1`
Outgoing: 0.051 mM

More entries:
Incoming: Please report IC50 for the following compound: `CC[N+](CC)(CC)CC`
Outgoing: 71 mM
